Task for the reader: assign each of the following sequences its reported PBM binding z-score.
tested on: PPARg:RXRa 270nM:90nM, anti-RXR (NR concentration 270 nM, RXRa partner concentration 90 nM); test: PBM binding z-score (relative to random genomic background probes); higher = stronger binding; sequences stand for … in GC…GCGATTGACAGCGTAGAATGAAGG
// no unit, no text: just the number

May I ask what PBM binding z-score has been recorded for ATATGTACGTTAGCTGGGGTCATTCAGACTAGGC ?
2.27

Reported PBM binding z-score, sequence ACAGACCGGTGAGTGAAGGTAACTCAGCTGGACG : ____
-0.715

Please report the recorded PBM binding z-score for GCGTATAGGTAATACAAGGTGAAAGTCCGATTGT .
0.855

Endpoint output: PBM binding z-score of ACAGACAGGGGATGAAGGTAACTCAGGCTATCAT . Value?
-0.0093

I am curious: what PBM binding z-score value has been reported for TCTTGTAGTTCAGCAGGTTAAGAAAGCTGGCCAA ?
1.61

For the sequence shown here, CCTAGCAGGCCAGGCTCACTCAAGCATTTCGCTT , give the reported PBM binding z-score.
-0.638

What PBM binding z-score value was documented for this sequence, GCTTCTAGGTCAACTGATGGTCAGCTAAAGCTCG ?
5.64

I have this sequence here, CGAAGTAGGTCAGAACAGGACAGTGAAGGATGAT , and I need its recorded PBM binding z-score.
4.81

Param item = CCGACTGGGGCAAAGGTTACCAAACTCAGTACGA ; retrieve measured PBM binding z-score.
9.36

Look up PBM binding z-score for this sequence: AGAATGAGGTTACCAAGGATCAGGGAAACGCTTG
2.47

Fill in: PBM binding z-score of CCTAGTTAGTCAGGAGGTCACACACCGGATATGA is ___
3.19

---

tested on: FXR:RXRa (NR concentration 270 nM, RXRa partner concentration 90 nM); test: PBM binding z-score (relative to random genomic background probes); higher = stronger binding; sequences stand for … in GC…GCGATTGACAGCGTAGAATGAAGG
For each record, write down the corresponding PBM binding z-score.
// no unit, no text: just the number

# input sequence: ATAAGTAGGTTATCGGGTCATTCAGTTTGCGCAT ; wanted: its PBM binding z-score
3.42

Find the recorded PBM binding z-score belonging to TCTAGCAAGCCAGAGGGTCACTCAAGAGGTACGG and report it.
0.763

Form field: reported PBM binding z-score of TCTCGGAGGACACGAAGGTCAGGGCTTTCCAGAG
1.55

Report PBM binding z-score for GCTACAGGGTCAAGGCCAGAGTACGCGTATTGAT please.
6.86

Report PBM binding z-score for TCTGCTAGGTCAACGCTGGTCAGCTAATCTGCTA please.
3.47

Return reported PBM binding z-score; argument: CTTAGCAGGCCAATCTGGGTCACTCAAGGCTTGA
0.29

Item under review: TAGAGTAGGTTAGTCGGGGCATTCAGCCAACATA . Reported PBM binding z-score?
0.871

---

For each record, write down the corresponding PBM binding z-score.
tested on: THRa:RXRa (NR concentration 90 nM, RXRa partner concentration 90 nM); assay: PBM binding z-score (relative to random genomic background probes); higher = stronger binding; sequences stand for … in GC…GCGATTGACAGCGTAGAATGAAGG
Output spec: single numeric token, no unit.

Item under review: CCGGCTGGGGCATAAGGTTACCATAAGCCAGCCC . Reported PBM binding z-score?
1.93

Looking for the measured PBM binding z-score of GCGACTGGGGCAAAGCAGGTTACCATGAGGTTGG , can you help?
2.99

Recorded PBM binding z-score of CGAACTAGGTCAGAACAGGACAGTGAAGGATGAT , please.
3.41

Look up PBM binding z-score: GCTTGTGGATCAAGGTTAAGAAAGACTAAGCTAA
1.27

Fill in: PBM binding z-score of GCTCGGAGGGCAAGGTCAGAGCTTTGTCCGTAGA is ___
2.76

Entry TCTGGTAGATCAGCAGGTTAAGAAAGCTGGCCAA : reported PBM binding z-score = ?
0.0552

If you can, please state the reported PBM binding z-score value of TAGCCTAGGTCATTCACGGGCCAGTATAGAAAGC .
2.91

Request the reported PBM binding z-score associated with CCGATTGGGGCAAAGGTTACCATACTCAGTACGA
1.84

What does the record list as PBM binding z-score for CACACTAGGTCACGAAAGGTCAAAGTCGAATGAC ?
5.26

I'd like to know its PBM binding z-score. The sequence in question is TAGCCGAGGTCATGGGCCAGTATACCACGCGAAC
4.25

---

test system: THRa:RXRa (NR concentration 90 nM, RXRa partner concentration 90 nM); assay: PBM binding z-score (relative to random genomic background probes); higher = stronger binding; sequences stand for … in GC…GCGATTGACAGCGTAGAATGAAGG
MEASUREMENT_TYPE: PBM binding z-score
Give a plain numeric answer without units written out.

Quick one: PBM binding z-score of TAGTCTAGGTCAGATCGGGCCAGTATACGCTATA ?
4.26

Entry under review: CGTCCAATGTCAGAGAGGTCAGTGAATGCCGAGT . Reported PBM binding z-score?
2.75

# get_value(readout='PBM binding z-score', item= TAGCCTAGGTCAGATCGAGCCAGTATACGCTATA )
1.61

What value of PBM binding z-score has been reported for the following sequence? TCGAGTAGGTTACCAATGGGGCGTTCAGCTTTCT
-0.0946

Value lookup for PBM binding z-score; key = TCTAGGAGGACACGAAAGGTCAGAGCTCGACATC
3.98

Consider the sequence CGAACGAGGGCATGAGTTGATAGCCAATGCCGAT and give its measured PBM binding z-score.
1.24

Field request: PBM binding z-score | item: TCTAGTTTGTCACGGAGGTCACACACGACGGGTA
3.6

Look up PBM binding z-score for this sequence: GCTAGAAGGCCATTTGGGTCACTCAATGACGGGC
2.42

---

system: FXR:RXRa (NR concentration 270 nM, RXRa partner concentration 90 nM); assay: PBM binding z-score (relative to random genomic background probes); higher = stronger binding; sequences stand for … in GC…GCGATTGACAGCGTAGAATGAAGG
MEASUREMENT_TYPE: PBM binding z-score

What value of measured PBM binding z-score is listed for CCTACTGGGCCACGAAAGGTCATTGAGTCAGTGA ?
3.83

Using the record for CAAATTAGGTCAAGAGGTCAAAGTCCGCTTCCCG , report its PBM binding z-score.
7.34

Look at this sequence and give its reported PBM binding z-score. GATACAGGGTTAGCTAGAGGCCAGAGTATGGAAA
0.0111

State the recorded PBM binding z-score for this entry: CCTACCAGGCCAATCTGGGTCACTCAAGGCTTGA
1.15

Look up PBM binding z-score for this sequence: CAAACTAGGTAACCGGAAGGTCAAAGTCCGCATG
4.07

Param item = ACTAGTTGGTCAGTTGAGGTCACACACAATTCGG ; retrieve measured PBM binding z-score.
3.26

State the recorded PBM binding z-score for this entry: ATCTAAAGGTCGACGAGGTGAGTATACACCGTTT
4.77

Param item = TCTTGTAGATCAACAGGAGGTTGAGAAAGATCGA ; retrieve measured PBM binding z-score.
-0.0264

Would you kindly share the measured PBM binding z-score for GCTCGGAGCACAAGGTCAGAGCTTTGTCCGTAGA ?
1.22

Returns the measured PBM binding z-score for the input sequence. Input: TAGCCTAGGTAATTGGGCCAGTATAGTACGCATC
-0.768

// lookup PBM binding z-score for GCTAGCAGGCCATTTGGGTCACTCAATGACGGGC
0.232

---

tested on: RARb:RXRa (NR concentration 270 nM, RXRa partner concentration 90 nM); test: PBM binding z-score (relative to random genomic background probes); higher = stronger binding; sequences stand for … in GC…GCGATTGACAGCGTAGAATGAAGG
MEASUREMENT_TYPE: PBM binding z-score
Give the value as a plain number.

Form field: reported PBM binding z-score of ATCGAAAGGTCGACGAGGTGAGTCTACACCGTTT
3.98

Please give the measured PBM binding z-score for this sequence: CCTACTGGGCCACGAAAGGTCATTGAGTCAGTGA
4.04

Given ATTAGCAGGCCAAGGGTCACTCAAGATTAGTCCG , state its recorded PBM binding z-score.
3.62

Any idea what PBM binding z-score was measured for CGTCAAAGTTCAACTAAGGTACCGTAAAGCACGC ?
5.21

Bench note: what PBM binding z-score did GCTTGTAGATCAAGGTTAAGGAAGACTAAGCTAA show?
0.798

What does the data say about its PBM binding z-score? Entry: TTACCAAAGTGAAGGTCGTTGATCCCTCTGTAGA
0.632

Report PBM binding z-score for CCTGCTAGATCATGGTCAGCTAATCTACAGTATG please.
-0.0385

Data request, read-out PBM binding z-score, for GCAGACAAGTGAAACGCAGGTAACTCAGGGTGGC
-1.75

FYI, the data here is from the supplement of paper PMC6555819.
